- test-target: T1, IL1R1/CD121a (Sino biological, 10126-H08H) (UniProt P14778 18-332)
- T1 construct: Bought protein
- T1 sequence (looked up): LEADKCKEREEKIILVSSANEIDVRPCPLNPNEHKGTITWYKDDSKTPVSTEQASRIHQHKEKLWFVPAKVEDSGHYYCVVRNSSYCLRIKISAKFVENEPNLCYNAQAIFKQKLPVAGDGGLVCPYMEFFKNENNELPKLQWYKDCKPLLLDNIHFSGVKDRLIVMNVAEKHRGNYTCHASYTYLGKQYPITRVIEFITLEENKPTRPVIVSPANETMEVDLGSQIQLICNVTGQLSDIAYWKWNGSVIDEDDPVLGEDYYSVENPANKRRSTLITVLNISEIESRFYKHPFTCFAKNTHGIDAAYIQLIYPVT
- assay-info: ELISA, plate coated with 2 µg/mL receptor
assay-readout: binding result

# query: binding result of entry Chimeric 31C8 (antibody, human IgG2, kappa, V domains shown, also called xi31C8) VH: QVQLQQSGPELVRPGASVTLSCKASGYIFIDSEMHWVKQTPVHGLEWIGAIDPETGDTVYNQKFKGKATLTADKSSSTASMELSSLTSEDSAVYYCTGSTTDYYFAYWGQGTTLTVSS VL: DIVMTQAAFSNPVTLGTSASISCRSSKSLLHSNGIIYLYWYLQKPGQSPQLLIYQMSNLASGVPDRFSSSGSGTDFTLRISRVEAEDVGVYYCAQNLELPFTFGSGTKLEIKR
no binding

Note, next up: Humanized 31C8-1.1 (antibody, human IgG2, kappa, V domains shown, also called hz31C8-1.1; hz31C81-1.1) VH: EVQLVQSGAEVKKPGATVKISCKASGYIFIDSEMHWVQQAPGKGLEWMGAIDPETGDTVYAEKFQGRVTITADKSSSTAYMELSSLRSEDTAVYYCTGSTTDYYFAYWGQGTLVTVSS VL: DIQMTQSPSSLSASVGDRVTITCRSSKSLLHSNGIIYLYWYQQKPGKAPKLLIYQLSNLASGVPSRFSSSGSGTDFTLTISSLQPEDFATYYCAQNLELPFTFGQGTKVEIKR
no binding

Now the binder Humanized 31C8-1.2 (antibody, human IgG2, kappa, V domains shown, also called hz31C8-1.2; hz31C81-1.2) VH: QVQLVQSGAKVKKPGATVKISCKASGYIFIDSEMHWVQQAPGKGLEWMGAIDPETGDTVYAKKFKGRVTITADKSSSTAYMELSSLRSEDTAVYYCTGSTTDYYFAYWGQGTLVTVSS VL: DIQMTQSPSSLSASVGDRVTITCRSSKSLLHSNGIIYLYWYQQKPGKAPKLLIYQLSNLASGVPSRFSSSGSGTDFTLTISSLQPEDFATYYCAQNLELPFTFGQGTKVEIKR
no binding

Value source: patent US20230272086A1
